- Method notes: Preliminary pharmacokinetics in trial 1403-0001 (Arm A D1 q3w, Arm B D1 D8 q4w)
- Type: in vivo, human
- Run parameters: human, plasma, oral, 60 mg, Day 1, D1 D8 q4w (Arm B), gMean, N=2; read-out: Cmax
Value type: Cmax (nM)

1. Cc1c(C(=O)O)ccc2c3n(nc12)[C@@H]1[C@H](C3)N(CC2CC2)[C@@]2(C(=O)Nc3cc(Cl)ccc32)[C@H]1c1cccc(Cl)c1F	1960

----------
- Method notes: Preliminary pharmacokinetics in trial 1403-0001 (Arm A D1 q3w, Arm B D1 D8 q4w)
- Assay type: in vivo, human
- Run parameters: human, plasma, oral, 30 mg, Day 1, D1 D8 q4w (Arm B), gMean, N=4; read-out: AUC0-∞
Value type: AUC(0-inf)

1) Cc1c(C(=O)O)ccc2c3n(nc12)[C@@H]1[C@H](C3)N(CC2CC2)[C@@]2(C(=O)Nc3cc(Cl)ccc32)[C@H]1c1cccc(Cl)c1F [MDM2-antagonist of formula I]	79.9 µM·h
